Reference source: BindingDB's records for doi:10.1016/j.bioorg.2016.07.010

Biological target: Thymidine phosphorylase (Escherichia coli O45:K1 (strain S88 / ExPEC), UniProt B7MNI9)
Sequence (B7MNI9 whole entry): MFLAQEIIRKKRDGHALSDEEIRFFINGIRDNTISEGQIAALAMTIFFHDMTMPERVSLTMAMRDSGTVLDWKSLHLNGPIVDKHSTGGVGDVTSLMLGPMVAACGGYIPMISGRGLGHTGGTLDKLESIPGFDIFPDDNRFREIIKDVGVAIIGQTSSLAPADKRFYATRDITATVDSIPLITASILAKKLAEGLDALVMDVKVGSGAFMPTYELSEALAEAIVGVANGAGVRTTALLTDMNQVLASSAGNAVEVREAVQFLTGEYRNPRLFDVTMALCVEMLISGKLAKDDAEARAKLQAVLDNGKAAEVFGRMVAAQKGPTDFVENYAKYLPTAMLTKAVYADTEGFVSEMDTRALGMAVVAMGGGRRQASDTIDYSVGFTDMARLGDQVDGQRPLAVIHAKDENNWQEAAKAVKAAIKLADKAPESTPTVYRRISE
Experiment: Thymidine Phosphorylase Assay
Conditions: pH 7.4; 25 °C
I'd appreciate it if you could label each record using IC50 and these ranges: bin 0 = under 30 µM, bin 1 = from 30 µM up to 50 µM, bin 2 = 50 µM and over

[
  {
    "Smiles Structure": "O=c1[nH]c(=O)c2cc[nH]c2[nH]1",
    "Assigned Class": "bin 1"
  },
  {
    "Smiles Structure": "Clc1ccccc1/C=N/Nc1cnc2ccccc2n1",
    "Assigned Class": "bin 1"
  },
  {
    "Smiles Structure": "Fc1cccc(/C=N/Nc2cnc3ccccc3n2)c1",
    "Assigned Class": "bin 2"
  },
  {
    "Smiles Structure": "Oc1ccc(/C=N/Nc2cnc3ccccc3n2)cc1O",
    "Assigned Class": "bin 0"
  },
  {
    "Smiles Structure": "Fc1ccccc1/C=N/Nc1cnc2ccccc2n1",
    "Assigned Class": "bin 1"
  },
  {
    "Smiles Structure": "Clc1cccc(/C=N/Nc2cnc3ccccc3n2)c1",
    "Assigned Class": "bin 2"
  },
  {
    "Smiles Structure": "Oc1cccc(/C=N/Nc2cnc3ccccc3n2)c1O",
    "Assigned Class": "bin 0"
  },
  {
    "Smiles Structure": "Oc1cc(O)c(/C=N/Nc2cnc3ccccc3n2)cc1O",
    "Assigned Class": "bin 0"
  },
  {
    "Smiles Structure": "COc1ccc(/C=N/Nc2cnc3ccccc3n2)cc1O",
    "Assigned Class": "bin 1"
  },
  {
    "Smiles Structure": "Oc1ccc(O)c(/C=N/Nc2cnc3ccccc3n2)c1",
    "Assigned Class": "bin 1"
  },
  {
    "Smiles Structure": "C(=N\\Nc1cnc2ccccc2n1)/c1c[nH]c2ccccc12",
    "Assigned Class": "bin 2"
  }
]
